Below: a set of entries, each annotated with reported pIC50.
test system: Human immunodeficiency virus 1; test: Antiviral activity against HIV1 JRCSF infected in human vaginal epithelium assessed as inhibition of viral genomic integration by titration assay; assay type: functional; conditions: Human immunodeficiency virus 1, JRCSF ISOLATE
In simple prose, pIC50 is minus the logarithm base ten of a concentration in moles per litre.

{"smiles_data": "[N-]=[N+]=NCc1cccc(C(=O)/C=C(\\O)C(=O)O)c1", "outcome_measure": "pIC50", "data_value": 6.72}

Continue with the next molecule.
Name the recorded pIC50 for Cc1ccc(-c2ccc3c(c2)C=C(C(=O)Nc2ccc(C[N+](C)(C)C4CCOCC4)cc2)CCC3)cc1.[Cl-] .
8.23
